# Test system: BT-549 breast
# TEST_DESCRIPTION: NCI-60 one-dose screen, 48 h
# CONDITION_DESCRIPTION: 10 µM unless noted
The panel holds about 83,000 compounds, 20% with a hit somewhere; the sample as a whole holds those more often. Calls of active or inactive are those of the source. Rule for the calls: active = growth percent below 10; inactive = the rest.
Labels: true (1) = active, false (0) = inactive

| MOLECULE | DISCRETE_LABEL |
| --- | --- |
| CC1(C)CC[C@]23CC[C@]4(C)[C@H](CC[C@@H]5[C@@]6(C)CCNCC(C)(C)[C@@H]6CC[C@]54C)[C@H]2[C@H]1OC3 | false (0) |
| CCOC(=O)CNC1=C(Cl)C(=O)N(Cc2ccc(Cl)cc2)C1=O | false (0) |
| Nc1c(C(=O)Nc2cccc3ncccc23)sc2nc3c(cc12)CN(Cc1ccccc1)CC3 | false (0) |
| c1csc(-c2cn3nc(-c4c[nH]c5ccccc45)sc3n2)c1 | false (0) |
| Nc1ncccc1O | false (0) |
| COc1ccc(/C=N/NC(=O)Cn2c(-c3ccc(S(C)(=O)=O)cc3)nc3ccccc32)cc1 | false (0) |
| CCCCn1c(NC(C)=O)c(S(=O)(=O)c2ccccc2)c2nc3ccccc3nc21 | false (0) |
| Cc1ncc(C(=O)Nc2ccc(CN3CCN(C)CC3)c(C(F)(F)F)c2)cc1C#Cc1cnc(N)c2ccc(C#N)cc12 | false (0) |
| O=C1Nc2ccccc2/C1=N/N1C(=O)CN(CCCl)C1=O | false (0) |
| COc1cccc(-c2cn3nc(-c4cn(C)c5ccccc45)sc3n2)c1 | false (0) |
| O=C(/C=C/c1cccc(Oc2ccccc2)c1)c1ccc(Nc2nc(Nc3ccc(F)cc3)nc(Nc3ccc(Cl)cc3)n2)cc1 | false (0) |
| CCSc1ccnc(N)n1 | false (0) |
| CN1C(=O)/C(=C/c2ccc(C(=O)Nc3ncc(Cc4cc(Cl)ccc4Cl)s3)cc2)SC1=S | false (0) |
| O=C1/C(=C/c2ccc(Cl)cc2)CN(C(=O)C(Cl)Cl)C/C1=C\c1ccc(Cl)cc1 | true (1) |
| Fc1cccc(CNc2c3ccccc3nc3ccccc23)c1 | false (0) |
| Nc1[nH]nc2nc(-c3ccccc3)n3c4ccccc4nc3c12 | false (0) |
| COC(=O)c1c(C)nc(C)c2c1C(=O)C=C(NCc1ccccc1)C2=O | false (0) |
| CCN(CC)C(=O)C1=C(C)NC(=O)NC1c1ccc2c(c1)OCO2 (stereo unspecified) | false (0) |
| c1ccc(Cn2cc3c(c2-c2ccccc2)CCc2cnoc2-3)cc1 | false (0) |
| O=C1C=C(SCCO)C(=O)c2ccccc21 | true (1) |
| O=C(/C=C/c1ccco1)Nc1ncc(Cc2cc(Cl)ccc2Cl)s1 | false (0) |

====

# Test system: RPMI-8226 leukemia
# TEST_DESCRIPTION: NCI-60 one-dose screen, 48 h (100 = growth as untreated, 0 = no growth, -100 = all killed)
# CONDITION_DESCRIPTION: 10 µM unless noted
This is part of a sample that, as a whole, favours compounds with a hit. Of some 83,000 tested, about 20% had one in any assay.
Just a reminder that ties go to F: only growth strictly below 10% counts as T.

| COMPOUND | DISCRETE_LABEL |
| --- | --- |
| O=C(NCCCCCCNC(=O)OCc1ccc2c(Cl)cc(Cl)c(O)c2n1)OCc1ccc2c(Cl)cc(Cl)c(O)c2n1 | T |
| CNC(=O)c1cc(Oc2ccc3c(c2)sc2nc(-c4ccc(NC(=O)[C@@H](NC(=O)OC)C(C)C)cc4)cn23)ccn1 | F |
| CN1C(=O)N2CN3CCCN(C3)CN3C(=S)NC1C23 (stereo not given) | F |
| O=C1/C(=C/c2cccc(Br)c2)COc2ccc(O)cc21 | T |
| COc1ccc(/C=C2\CN(C(=O)C(Cl)Cl)C/C(=C\c3ccc(OC)c(OC)c3)C2=O)cc1OC | T |
| COc1ccc(Nc2ncc(I)c(NCCCNC(=O)C3CCC3)n2)cc1 | F |
| CCN(CC)C(=O)C1=C(C)NC(=O)NC1c1ccc2c(c1)OCO2 (stereo not given) | F |
| CCOC(=O)c1[nH]cc2c1CCc1sc(Nc3ccccn3)nc1-2 | F |
| CC(C)(Sc1cc(C(C)(C)C)c(O)c(C(C)(C)C)c1)Sc1cc(C(C)(C)C)c(OC(=O)CCC(=O)O)c(C(C)(C)C)c1 | F |
| c1cc(OCCCCCOc2cccc(-c3nc4ccccc4[nH]3)c2)cc(-c2nc3ccccc3[nH]2)c1 | T |
| N#Cc1ccc(/C=C/c2cn(-c3ccccc3)nc2-c2cccc([N+](=O)[O-])c2)cc1 | F |
| CCCCCCCCCCOC(=O)c1nn(C(C)=O)c2cc(C)c(C)cc12 | F |
| CCN(CC)CCOc1ccc2c(-c3ccccc3)c(-c3ccc(OC)cc3)c(=O)oc2c1 | F |
| COc1cc(-c2nccc3[nH]c(-c4cccc5[nH]ccc45)nc23)cc(OC)c1OC | T |
| Cn1cc(-c2csc(-c3cn(C)c4ccccc34)n2)c2cnccc21 | T |
| CSc1ccc2c3c(n(C[C@H](O)CO)c(=O)c2c1)-c1ccccc1C3=O | T |
| COc1ccccc1S(=O)(=O)Nc1ccc2c3c(cc(CCC(=O)NCCCCNc4cccc5c4C(=O)N(C4CCC(=O)NC4=O)C5=O)cc13)C(=O)N2C (stereo not given) | F |
| CC1=C(Cl)C(=O)c2cc(C)ccc2C1=O | F |
| N#Cc1c(-c2ccccc2)nc2c(c(-c3ccccc3)nn2-c2ccccc2)c1-c1ccc(N2CCCCC2)cc1 | F |
| CCOc1ncc([N+](=O)[O-])c(OCC)n1 | F |
| CCOC(=O)C1=C(c2ccccc2)N=C2N(c3ccccc3)N=C(C(C)=O)N2C1c1ccc(F)cc1 (stereo not given) | F |
| CC(C)C1C2=C(NCCN1C(=O)c1ccncc1)C(C)(C)N(Cc1ccccc1)C2=O (stereo not given) | F |
| COc1ccc(C(c2cc(OC)c(OC)c(OC)c2)N2CCCCC2)cc1 (stereo not given) | F |
| CCCCC#Cc1c(I)n(C2OC(CO[Si](C)(C)C(C)(C)C)C3OC(C)(C)OC32)c(=O)n(C(=O)c2ccccc2)c1=O (stereo not given) | T |

====

Entries annotated with measured growth
# System: HCT-116 colon
# TEST_DESCRIPTION: NCI-60 one-dose screen, 48 h (100 = growth as untreated, 0 = no growth, -100 = all killed)
# CONDITION_DESCRIPTION: 10 µM unless noted
This is part of a sample that, as a whole, favours compounds with a hit. Of some 83,000 tested, about 20% had one in any assay. Activity calls are given as the source filed them. Rule for the calls: active = growth percent below 10; inactive = the rest.
READOUT_TYPE: growth

| COMPOUND | RESULT |
| --- | --- |
| O=c1cc(CP(=O)(O)O)c2cc(O)c(-c3ccccc3)cc2o1 | 108% (inactive) |
| CCCCCCCCn1ccc2cc(NC(=O)CN=[N+]=[N-])ccc21 | 97.5% (inactive) |
| Cn1cc(-c2csc(-c3cn(CCCN4CCOCC4)c4ccc(F)cc34)n2)c2cccnc21 | 72.3% (inactive) |
| CCN(CC)CCOc1ccc(/C(=C(\C)Cc2ccc(OC)cc2)c2ccc(OC(=O)NCc3ccccc3)cc2)cc1 | 25.3% (inactive) |
| O=[N+]([O-])c1c(O)c(Cl)cc(Cl)c1Cl | 100% (inactive) |
| N#Cc1ccc(O)c(C2=NCC(c3ccc(-c4ccccc4)cc3)O2)c1 (stereo not given) | 9.12% (active) |
| NS(=O)(=O)c1ccc(C(=O)N=Nc2c(O)[nH]c3ccc(Cl)cc23)cc1 | 99.4% (inactive) |
| O=C1/C(=C/c2c[nH]c(=O)[nH]c2=O)SC(=S)N1Cc1ccccc1 | 103% (inactive) |
| CC(C)n1c2ccc(Br)cc2c2c3c(c4c5ccccc5ccc4c21)C(=O)NC3=O | 85.2% (inactive) |
| c1cc(OCCCCCOc2cccc(-c3nc4ccccc4[nH]3)c2)cc(-c2nc3ccccc3[nH]2)c1 | 7.44% (active) |

====

# Tested on: RPMI-8226 leukemia
# TEST_DESCRIPTION: NCI-60 one-dose screen, 48 h (100 = growth as untreated, 0 = no growth, -100 = all killed)
# CONDITION_DESCRIPTION: 10 µM unless noted
Compounds without any hit were thinned out: in the full panel of roughly 83,000, 20% have a hit.
Entries annotated with measured growth

| COMPOUND | growth (%) |
| --- | --- |
| O=C(Nc1cc(Cl)cc(Cl)c1)Oc1c(Cl)c(Cl)c(Cl)c(Cl)c1Cl | 37 |
| C/C(=N\Nc1ccccc1)c1ccc(NC2=CC(=O)c3ccccc3C2=O)cc1 | 64.3 |
| CC(=O)N1N=C(c2ccc(Nc3nc(Nc4ccc(F)cc4)nc(Nc4ccc(F)cc4)n3)cc2)CC1c1ccc(N(C)C)cc1 (stereo not drawn) | 4.52 |
| CCCCCc1ccc(S(=O)(=O)Nc2ccc3nc(N)oc3c2)cc1 | 38.4 |
| COC1C(O)CC(OC2CC(OC3CC(O[C@@H]4C(=O)c5c(cc6cc(OC7CC(OC8CC(O)C(O)C(C)O8)C(O)C(C)O7)c(C)c(O)c6c5O)CC4[C@H](OC)[C@@H](O)C(C)=O)OC(C)C3O)OC(C)C2O)OC1C (stereo partly drawn) | 7.39 |
| Nc1nc(N(Cc2ccccc2)c2ccccc2)c2cn[nH]c2n1 | 58.5 |
| O=C(Nc1nc(Cl)nc(Nc2ccc(N3CCOCC3=O)cc2)n1)c1ccc(Cl)s1 | 90.3 |
| O=C(NCc1ccc(Cn2c(=O)sn(-c3ccccc3)c2=O)cc1)OCc1ccc2cccc(O)c2n1 | -22.5 |
| Cc1ccc(C(=O)c2ccc(CC(=O)N/N=C/c3cccc(O)c3O)n2C)cc1 | 35.1 |
| CN(C)CCC(=O)C1CC1 | 101 |
| Cc1ccc2c(/C=C/C(=O)c3cc(CN4CCOCC4)c(O)c4nc(C)ccc34)cc(CN3CCOCC3)c(O)c2n1 | 2.37 |
| Nc1ncnc2c1N=C(c1ccc(Cl)cc1)CC(c1cccc(Nc3ccnc4cc(Cl)ccc34)c1)N2 (stereo not drawn) | -20.5 |
| Cc1nn(-c2ccc([N+](=O)[O-])cc2)c2ncnc(N/N=C/c3ccccc3O)c12 | 1.23 |
| Oc1c(I)cc(I)cc1CN(Cc1ccccn1)Cc1ccccn1 | 16.1 |
| Cc1cc(O)c(=O)cc2c1C[C@H]1CC(C)(C)/C=C/C[C@]3(C)Oc4cc(=O)c(O)cc(C)c4C[C@H]3C[C@H](O)[C@@]1(C)O2 | 3.46 |
| CCOc1ccc(/C=C/C(=O)c2cccc(OCCCOc3cccc(C(=O)/C=C/c4ccc(OCC)cc4)c3)c2)cc1 | 93.6 |
| CN1CCN(Cc2ccc(NC(=O)c3cncc(C#Cc4cnc(N)cc4C#N)c3)cc2C(F)(F)F)CC1 | 12.7 |
| COc1ccc2c(c1)C(C)Cc1c(ncnc1-n1cnc3cc(C)ccc31)N2C (stereo not drawn) | 11.9 |
